assayed system: AHR (Mus musculus)
assay notes: In vitro assay 3: antagonism in mouse cell line (AHR transactivation, firefly luciferase reporter, kynurenic acid prestimulated)
Assay type: cell-based
condition context: read-out: AHR Antagonism Mouse IC50, mouse Hepa 1c1c7 cells, 200 μM kynurenic acid, 20 hours
pIC50: −log10 of the molar value.
Threshold check on pIC50: at or above 9 gives True, strictly below gives False.

compound	assayed system	class name
CC[C@@H](Nc1nc2c(Br)cccc2c2nc(-c3ccc(OC)cc3OC(F)(F)F)nn12)C(N)=O [Example 567]	AHR (Mus musculus)	False
COc1ccc(-c2nc3c4ccccc4nc(N[C@H](C)C(=O)NC4CCCCC4)n3n2)cc1 [Example 665]	AHR (Mus musculus)	False
O=C1NCCCC[C@H]1Nc1nc2ccccc2c2nc(-c3cncc(F)c3)nn12 [Example 479]	AHR (Mus musculus)	False

Threshold query (pIC50 >= 9) on Cc1ccccc1-c1nc2c3ccccc3nc(N[C@@H]3CCCCNC3=O)n2n1 [Example 42] True

Threshold query (pIC50 >= 9) on CS(=N)(=O)c1ccccc1-c1nc2c3ccccc3nc(N[C@@H]3CCCCNC3=O)n2n1 (single isomer, unassigned) [Example 661] False

----------
assayed system: AHR (Mus musculus, UniProt P30561)
Sequence (P30561 whole entry P471L/N533S/M589L, form open): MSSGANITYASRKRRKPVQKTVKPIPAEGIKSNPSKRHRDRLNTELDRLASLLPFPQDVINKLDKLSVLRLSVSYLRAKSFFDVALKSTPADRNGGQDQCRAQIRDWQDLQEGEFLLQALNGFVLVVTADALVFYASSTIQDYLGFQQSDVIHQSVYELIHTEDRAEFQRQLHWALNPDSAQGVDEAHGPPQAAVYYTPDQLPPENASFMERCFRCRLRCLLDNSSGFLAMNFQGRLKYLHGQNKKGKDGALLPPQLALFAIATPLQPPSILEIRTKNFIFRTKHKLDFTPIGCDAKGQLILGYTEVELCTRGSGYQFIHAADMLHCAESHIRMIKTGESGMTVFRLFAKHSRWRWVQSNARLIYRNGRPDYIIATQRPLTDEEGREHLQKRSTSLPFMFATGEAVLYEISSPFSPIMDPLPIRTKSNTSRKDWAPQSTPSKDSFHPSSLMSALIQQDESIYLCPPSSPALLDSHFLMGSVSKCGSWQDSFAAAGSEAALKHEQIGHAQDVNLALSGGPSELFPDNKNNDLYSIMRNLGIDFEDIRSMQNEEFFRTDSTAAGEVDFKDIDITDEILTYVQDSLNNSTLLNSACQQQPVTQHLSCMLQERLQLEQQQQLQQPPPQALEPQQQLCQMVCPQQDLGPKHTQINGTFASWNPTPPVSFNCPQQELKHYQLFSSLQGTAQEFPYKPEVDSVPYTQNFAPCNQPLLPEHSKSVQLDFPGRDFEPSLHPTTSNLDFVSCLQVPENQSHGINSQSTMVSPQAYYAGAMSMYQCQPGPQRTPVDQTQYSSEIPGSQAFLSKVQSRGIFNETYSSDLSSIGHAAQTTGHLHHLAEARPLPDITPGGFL
assay notes: In vitro assay 3: antagonism in mouse cell line (AHR transactivation, firefly luciferase reporter, kynurenic acid prestimulated)
Type: cell-based
condition context: Hepa 1c1c7 cells, 200 μM kynurenic acid, 20 hours, firefly luciferase reporter, read-out: AHR Antagonism Mouse IC50
Labelling field: enter fulfilled if recorded IC50 is less than 0.07 µM. Enter not fulfilled if it equals or exceeds that cut-off.

Here are 3 compounds together with their reported answers.
compound	class name
C[C@@H](Nc1nc2c(C(F)(F)F)cccc2c2nc(-c3cnn(C)c3)nn12)C(=O)N1CCOCC1	fulfilled
CCOC(=O)[C@@H](C)Nc1nc2c(C(F)(F)F)cccc2c2nc(-c3cnn(C)c3)nn12	not fulfilled
C[C@@H](Nc1nc2c(Br)cccc2c2nc(-c3cnn(C)c3)nn12)C(=O)N1C[C@@H]2C[C@H]1CN2C	not fulfilled

Shift focus to the following entry.
Decide: IC50 of `Cc1c(-c2nc3c4cccc(Br)c4nc(N[C@@H]4CCCCNC4=O)n3n2)cnn1C` strictly below 0.07 µM? fulfilled

----------
assayed system: AHR (Homo sapiens)
Construct: U87 MG glioblastoma cells (ATCC #HTB-14) endogenously expressing AHR; endogenous in cells; host or cells: U87 MG glioblastoma cells (ATCC #HTB-14)
Sequence (P35869 11-848): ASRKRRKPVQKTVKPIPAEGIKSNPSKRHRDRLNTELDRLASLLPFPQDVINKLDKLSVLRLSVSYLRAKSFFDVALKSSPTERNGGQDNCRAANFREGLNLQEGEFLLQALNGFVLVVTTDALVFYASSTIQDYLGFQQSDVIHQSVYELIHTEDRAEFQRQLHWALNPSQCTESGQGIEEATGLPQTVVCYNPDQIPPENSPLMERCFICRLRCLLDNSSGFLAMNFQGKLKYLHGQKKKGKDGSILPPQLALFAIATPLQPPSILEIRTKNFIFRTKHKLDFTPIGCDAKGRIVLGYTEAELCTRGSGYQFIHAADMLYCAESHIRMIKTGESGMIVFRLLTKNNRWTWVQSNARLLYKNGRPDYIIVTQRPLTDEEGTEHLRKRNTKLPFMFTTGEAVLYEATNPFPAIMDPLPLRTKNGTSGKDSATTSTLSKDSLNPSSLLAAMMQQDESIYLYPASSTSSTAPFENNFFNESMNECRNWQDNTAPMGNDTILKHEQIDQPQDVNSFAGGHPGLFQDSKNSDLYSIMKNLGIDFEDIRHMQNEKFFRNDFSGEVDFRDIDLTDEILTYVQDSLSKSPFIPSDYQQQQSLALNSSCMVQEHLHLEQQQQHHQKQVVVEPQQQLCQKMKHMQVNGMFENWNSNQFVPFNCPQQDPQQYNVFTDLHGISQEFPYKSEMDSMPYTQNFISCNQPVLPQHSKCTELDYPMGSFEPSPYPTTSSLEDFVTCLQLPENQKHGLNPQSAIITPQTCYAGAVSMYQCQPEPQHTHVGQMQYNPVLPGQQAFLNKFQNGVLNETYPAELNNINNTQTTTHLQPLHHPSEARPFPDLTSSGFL
assay notes: In vitro assay 1: antagonism in human cell line (AHR transactivation, firefly luciferase reporter, kynurenic acid prestimulated)
Format: cell-based
condition context: AHR Antagonism Human IC50 [M]
measured property: IC50 (M)
The answer is to be given in M; state only the numeric part.

// below: answered molecules
molecule	test value
Cn1ccc(-c2nc3c4cccc(C(F)(F)F)c4nc(N[C@@H]4CCCCNC4=O)n3n2)n1	7.1e-09
COc1cccc(-c2nc3c4ccccc4nc(NC4CCN(C)C4=O)n3n2)c1 (single isomer, unassigned) [Example 122]	5.55e-08
N#Cc1ccc(-c2nc3c4ccccc4nc(N[C@@H]4CCCNC4=O)n3n2)cc1	1.76e-08
COc1ccc(-c2nc3c4cccc(Br)c4nc(N[C@H]4COCCNC4=O)n3n2)cc1	1.45e-08

Which IC50 value belongs to `COc1cccc(-c2nc3c4ccccc4nc(N[C@H](C(N)=O)C(C)C)n3n2)c1` ? 6.99e-07

Which IC50 value belongs to `Cn1cc(-c2nc3c4cccc(Br)c4nc(N[C@@H]4CCCCNC4=O)n3n2)cn1` ? 9.71e-10
